target: EGFR wildtype (WT) (Homo sapiens); assay: Biochemical EGFR kinase inhibition assay (Lance Ultra TR-FRET), wildtype; details: IC50 WT (nM), 100 μM ATP
Sequence (P00533 25-1210): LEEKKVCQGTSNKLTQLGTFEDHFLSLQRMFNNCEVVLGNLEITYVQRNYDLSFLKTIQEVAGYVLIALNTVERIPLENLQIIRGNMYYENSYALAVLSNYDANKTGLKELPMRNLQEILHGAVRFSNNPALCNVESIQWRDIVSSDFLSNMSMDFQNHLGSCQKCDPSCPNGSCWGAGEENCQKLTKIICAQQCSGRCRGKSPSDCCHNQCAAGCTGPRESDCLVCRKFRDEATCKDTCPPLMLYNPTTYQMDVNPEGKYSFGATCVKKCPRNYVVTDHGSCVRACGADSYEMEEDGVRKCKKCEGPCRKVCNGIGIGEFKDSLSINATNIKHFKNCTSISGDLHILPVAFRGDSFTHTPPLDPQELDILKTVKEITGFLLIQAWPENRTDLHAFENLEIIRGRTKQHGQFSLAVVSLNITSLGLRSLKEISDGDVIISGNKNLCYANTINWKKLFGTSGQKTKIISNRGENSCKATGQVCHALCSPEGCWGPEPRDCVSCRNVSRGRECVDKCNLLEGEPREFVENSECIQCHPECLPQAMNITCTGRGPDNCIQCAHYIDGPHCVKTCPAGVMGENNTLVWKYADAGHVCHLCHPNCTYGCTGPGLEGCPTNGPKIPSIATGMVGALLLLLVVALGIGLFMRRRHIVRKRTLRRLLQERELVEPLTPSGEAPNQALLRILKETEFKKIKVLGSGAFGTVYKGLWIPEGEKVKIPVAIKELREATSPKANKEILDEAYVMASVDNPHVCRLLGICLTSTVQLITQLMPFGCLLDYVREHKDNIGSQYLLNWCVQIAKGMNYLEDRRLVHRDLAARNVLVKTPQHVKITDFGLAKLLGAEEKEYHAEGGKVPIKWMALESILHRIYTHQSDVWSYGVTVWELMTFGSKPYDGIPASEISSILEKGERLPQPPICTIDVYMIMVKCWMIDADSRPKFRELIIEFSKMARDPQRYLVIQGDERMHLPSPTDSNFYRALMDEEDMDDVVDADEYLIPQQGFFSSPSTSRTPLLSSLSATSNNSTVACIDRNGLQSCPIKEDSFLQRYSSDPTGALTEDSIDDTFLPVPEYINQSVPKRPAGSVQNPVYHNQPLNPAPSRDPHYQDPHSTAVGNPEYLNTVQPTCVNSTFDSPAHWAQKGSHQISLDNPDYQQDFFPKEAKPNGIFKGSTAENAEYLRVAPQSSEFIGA
Catalogue of molecules with associated IC50

Solved entries (count: 2):
[[record]]
molecule = "CC(C)(O)[C@H]1CC[C@@H](Nc2cc(Nc3ccnc(-c4cnn(S(=O)(=O)C5CC5)c4)n3)ncc2C#Cc2ccc(CN3CCOCC3)cc2)CC1 [Example 162]"
endpoint_name = "IC50"
result = "> 10000 nM"

[[record]]
molecule = "C#Cc1cnc(Nc2ccnc(-c3cnn(S(=O)(=O)C4CC4)c3)n2)cc1N1CCC(C)(CO)CC1 [Example 247]"
endpoint_name = "IC50"
result = "8670 nM"


What does the data say about its IC50? Entry: CN(C)CC1(C)CCN(c2cc(Nc3ccnc(-c4cnn(S(=O)(=O)C5CC5)c4)n3)ncc2C#Cc2cnn(C)c2)CC1 [Example 296]
3250 nM

###

molecular target: EGFR Del19/C797S (Homo sapiens, UniProt P00533, C797S/DEL746-750); assay: Biochemical EGFR kinase inhibition assay (Lance Ultra TR-FRET), double mutant del19/C797S; details: ATP at Km; read-out: IC50 Del19/C797S (nM), Km ATP
Sequence (P00533 with tags, fused parts or gaps DEL746-750/C797S): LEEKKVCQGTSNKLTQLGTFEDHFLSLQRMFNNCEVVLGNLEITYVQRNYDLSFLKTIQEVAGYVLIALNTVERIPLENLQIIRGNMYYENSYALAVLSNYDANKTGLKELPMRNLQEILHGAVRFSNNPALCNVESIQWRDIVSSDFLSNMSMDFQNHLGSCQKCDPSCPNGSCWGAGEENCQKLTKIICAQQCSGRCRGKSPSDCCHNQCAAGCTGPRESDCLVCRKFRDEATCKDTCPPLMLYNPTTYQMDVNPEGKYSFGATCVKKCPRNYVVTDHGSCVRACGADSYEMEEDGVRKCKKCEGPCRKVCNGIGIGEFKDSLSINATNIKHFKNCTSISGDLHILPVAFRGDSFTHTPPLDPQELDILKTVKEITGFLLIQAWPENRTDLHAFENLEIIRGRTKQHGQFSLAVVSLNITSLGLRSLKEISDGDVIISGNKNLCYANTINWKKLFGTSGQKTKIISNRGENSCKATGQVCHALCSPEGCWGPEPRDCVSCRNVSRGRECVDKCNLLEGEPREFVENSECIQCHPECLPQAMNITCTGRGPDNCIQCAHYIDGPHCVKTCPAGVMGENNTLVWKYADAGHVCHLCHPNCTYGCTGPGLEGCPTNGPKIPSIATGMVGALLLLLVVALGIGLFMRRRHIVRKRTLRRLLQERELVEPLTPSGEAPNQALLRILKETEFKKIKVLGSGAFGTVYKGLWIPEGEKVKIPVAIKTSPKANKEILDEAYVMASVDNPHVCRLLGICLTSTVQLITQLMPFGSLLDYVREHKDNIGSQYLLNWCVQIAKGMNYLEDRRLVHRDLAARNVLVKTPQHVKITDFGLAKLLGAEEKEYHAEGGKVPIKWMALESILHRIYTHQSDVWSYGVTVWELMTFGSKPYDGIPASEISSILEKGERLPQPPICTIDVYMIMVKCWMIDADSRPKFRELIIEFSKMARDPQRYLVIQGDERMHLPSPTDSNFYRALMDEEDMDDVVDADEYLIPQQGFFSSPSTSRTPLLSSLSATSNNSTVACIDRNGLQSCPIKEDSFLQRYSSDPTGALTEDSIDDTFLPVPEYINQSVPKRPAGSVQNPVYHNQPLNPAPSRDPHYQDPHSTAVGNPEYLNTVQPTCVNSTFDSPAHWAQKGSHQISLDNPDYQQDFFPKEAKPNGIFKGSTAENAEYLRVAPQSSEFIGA
Catalogue of molecules with associated IC50
Answer with a number only, understood to be in nM.

Solved entries (count: 2):
[[record]]
molecule = "CN(C)C(=O)c1ccc(C#Cc2cnc(Nc3ccnc(-c4cnn(S(=O)(=O)C5CC5)c4)n3)cc2N2CCC(C)(CO)CC2)cc1 [Example 262]"
endpoint_name = "IC50"
measured_number = 0.8

[[record]]
molecule = "CN1CCC(C#Cc2cnc(Nc3ccnc(-c4cnn(S(=O)(=O)C5CC5)c4)n3)cc2N2CCC(C)(CO)CC2)CC1 [Example 182]"
endpoint_name = "IC50"
measured_number = 0.4


Shift focus to the following entry.
What does the data say about its IC50? Entry: CN(C)C[C@H]1CC[C@@H](Nc2cc(Nc3ccnc(-c4cnn(S(=O)(=O)C5CC5)c4)n3)ncc2C#Cc2cnn(C(F)F)c2)CC1 [Example 310]
2.9

###

target: EGFR Del19/C797S (Homo sapiens, UniProt P00533, C797S/DEL746-750); test: Biochemical EGFR kinase inhibition assay (Lance Ultra TR-FRET), double mutant del19/C797S; conditions: IC50 Del19/C797S (nM), 100 μM ATP
Catalogue of molecules with associated IC50
Kindly report the value followed by its unit.

Solved entries (count: 4):
[[record]]
molecule = "Cn1cc(C#Cc2cnc(Nc3ccnc(-c4cnn(S(=O)(=O)C5CC5)c4)n3)cc2N[C@@H]2CCC[C@@H](O)C2)cn1 [Example 76]"
system = "EGFR Del19/C797S (Homo sapiens, UniProt P00533, C797S/DEL746-750)"
endpoint_name = "IC50"
result = "80.7 nM"

[[record]]
molecule = "O=S(=O)(C1CC1)n1cc(-c2nccc(Nc3cc(N4CCC(C5(O)CC5)CC4)c(C#Cc4cnn(C(F)(F)F)c4)cn3)n2)cn1 [Example 330]"
system = "EGFR Del19/C797S (Homo sapiens, UniProt P00533, C797S/DEL746-750)"
endpoint_name = "IC50"
result = "771 nM"

[[record]]
molecule = "CC(C)(O)CC#Cc1cnc(Nc2ccnc(-c3cnn(S(=O)(=O)C4CC4)c3)n2)cc1N1CCC(C)(CO)CC1 [Example 284]"
system = "EGFR Del19/C797S (Homo sapiens, UniProt P00533, C797S/DEL746-750)"
endpoint_name = "IC50"
result = "6.8 nM"

[[record]]
molecule = "O=S(=O)(C1CC1)n1cc(-c2nccc(Nc3cc(N4CCC(CO)CC4)c(C#Cc4cnn(CCF)c4)cn3)n2)cn1 [Example 30]"
system = "EGFR Del19/C797S (Homo sapiens, UniProt P00533, C797S/DEL746-750)"
endpoint_name = "IC50"
result = "2.8 nM"


What does the data say about its IC50? Entry: O=S(=O)(C1CC1)n1cc(-c2nccc(Nc3cc(N4CCC5(CCO5)CC4)c(C#Cc4ncc(CN5CCOCC5)cn4)cn3)n2)cn1 [Example 367]
3.5 nM

What does the data say about its IC50? Entry: Cn1cc(C#Cc2cnc(Nc3ccnc(-c4cnn(S(=O)(=O)C5CC5)c4)n3)cc2NCC(C)(C)CO)cn1 [Example 39]
53.6 nM

What does the data say about its IC50? Entry: CC1(CO)CCN(c2cc(Nc3ccnc(-c4cnn(S(=O)(=O)C5CC5)c4)n3)ncc2C#Cc2csc(CN3CCOCC3)n2)CC1 [Example 189]
1.8 nM

What does the data say about its IC50? Entry: CN(C)CCCn1cc(C#Cc2cnc(Nc3ccnc(-c4cnn(S(=O)(=O)C5CC5)c4)n3)cc2N2CCC(C)(CO)CC2)cn1 [Example 120]
0.8 nM
